PROCEDURE_SUMMARY: FBMN analysis of short peptides in small intestine contents and serum after oral DHG
RUN_PARAMETERS: small intestine contents, 60 min after oral DHG, C57 mice; FBMN feature intensity, peptides smaller than 690 Da
Peptide text beside a SMILES is read from it.
VALUE_TYPE: Peptide signal (feature intensity) in the small intestine, 60 min

Record excerpt, results attached:
CSCCC(N)C(=O)NC(CC(C)C)C(=O)O (stereo not drawn) [Met-Leu] (H-Met-Leu-OH; configuration not given here) = 0.00E+00
Nc1nc2c(ncn2[C@@H]2O[C@H](CO)[C@@H](O)[C@H]2O)c(=O)[nH]1 = 2.01E+06
N[C@@H](CC(=O)O)C(=O)N1CCC[C@H]1C(=O)O [Asp-Pro] (H-Asp-Pro-OH) = 7.32E+06
CC[C@H](C)[C@H](N)C(=O)N[C@H](C(=O)N[C@@H](CCCCN)C(=O)O)[C@@H](C)CC [Ile-Ile-Lys] (H-Ile-Ile-Lys-OH) = 2.00E+05
CC(C)[C@H](NC(=O)[C@@H]1CCC(=O)N1)C(=O)O [PyroGlu-Val] (HELM PEPTIDE1{[Glp].V}$$$$V2.0) = 7.64E+06

(a) CSCC[C@H](N)C(=O)N[C@@H](Cc1ccccc1)C(=O)O [Met-Phe] (H-Met-Phe-OH)
(b) CC(C)C[C@H](N)C(=O)N[C@@H](CCC(=O)O)C(=O)N[C@@H](CCCCN)C(=O)O [Leu-Glu-Lys] (H-Leu-Glu-Lys-OH)
(c) CC(C)CC(N)C(=O)NC(Cc1ccccc1)C(=O)O (stereo not drawn) [Leu-Phe] (H-Leu-Phe-OH; configuration not given here)
(d) CC(C)CC(NC(=O)C(NC(=O)C(N)C(C)O)C(C)C)C(=O)O (stereo not drawn) [Thr-Val-Leu] (H-Thr-Val-Leu-OH; configuration not given here)
Please rank these molecules by Peptide signal (feature intensity) in the small intestine, 60 min in descending order. The labels, placed in the requested order, form the answer.
c, b, d, a
(c: 9.44E+05, b: 4.20E+05, d: 1.54E+05, a: 0.00E+00)
